Attribution: patent US12714696B2

Assay: Pharmacokinetics after repeated oral administration of 250 μg/kg and 35 μg/kg of fluralaner in dogs after feeding
Assay type: in vivo, beagle dogs
Conditions: beagle, dog, plasma, po, 192 h; oral 250/35/600 μg/kg regimen, dogs, n=6; read-out: fluralaner concentration levels, GeoMean
Measurement type: concentration at 192 h (ng/mL)

>>> reported_result("Cc1cc(C2=NOC(c3cc(Cl)cc(Cl)c3)(C(F)(F)F)C2)ccc1C(=O)NCC(=O)NCC(F)(F)F (stereo not shown) [fluralaner, Fluralaner]")
508

====

Test: Pharmacokinetics after repeated oral administration of 35 μg/kg of fluralaner in dogs after feeding
Assay type: in vivo, beagle dogs
Details: beagle, dog, plasma, po, 35 μg/kg, 72 h; oral 35 μg/kg Days 0-3, dogs, n=6; read-out: fluralaner concentration levels, GeoMean
Measurement type: concentration at 72 h (ng/mL)

>>> reported_result("Cc1cc(C2=NOC(c3cc(Cl)cc(Cl)c3)(C(F)(F)F)C2)ccc1C(=O)NCC(=O)NCC(F)(F)F (stereo not shown)")
51.7
